// reported remaining activity at 1 µM per item
Target: DAPK1 (Homo sapiens)
Sequence (P53355 whole entry): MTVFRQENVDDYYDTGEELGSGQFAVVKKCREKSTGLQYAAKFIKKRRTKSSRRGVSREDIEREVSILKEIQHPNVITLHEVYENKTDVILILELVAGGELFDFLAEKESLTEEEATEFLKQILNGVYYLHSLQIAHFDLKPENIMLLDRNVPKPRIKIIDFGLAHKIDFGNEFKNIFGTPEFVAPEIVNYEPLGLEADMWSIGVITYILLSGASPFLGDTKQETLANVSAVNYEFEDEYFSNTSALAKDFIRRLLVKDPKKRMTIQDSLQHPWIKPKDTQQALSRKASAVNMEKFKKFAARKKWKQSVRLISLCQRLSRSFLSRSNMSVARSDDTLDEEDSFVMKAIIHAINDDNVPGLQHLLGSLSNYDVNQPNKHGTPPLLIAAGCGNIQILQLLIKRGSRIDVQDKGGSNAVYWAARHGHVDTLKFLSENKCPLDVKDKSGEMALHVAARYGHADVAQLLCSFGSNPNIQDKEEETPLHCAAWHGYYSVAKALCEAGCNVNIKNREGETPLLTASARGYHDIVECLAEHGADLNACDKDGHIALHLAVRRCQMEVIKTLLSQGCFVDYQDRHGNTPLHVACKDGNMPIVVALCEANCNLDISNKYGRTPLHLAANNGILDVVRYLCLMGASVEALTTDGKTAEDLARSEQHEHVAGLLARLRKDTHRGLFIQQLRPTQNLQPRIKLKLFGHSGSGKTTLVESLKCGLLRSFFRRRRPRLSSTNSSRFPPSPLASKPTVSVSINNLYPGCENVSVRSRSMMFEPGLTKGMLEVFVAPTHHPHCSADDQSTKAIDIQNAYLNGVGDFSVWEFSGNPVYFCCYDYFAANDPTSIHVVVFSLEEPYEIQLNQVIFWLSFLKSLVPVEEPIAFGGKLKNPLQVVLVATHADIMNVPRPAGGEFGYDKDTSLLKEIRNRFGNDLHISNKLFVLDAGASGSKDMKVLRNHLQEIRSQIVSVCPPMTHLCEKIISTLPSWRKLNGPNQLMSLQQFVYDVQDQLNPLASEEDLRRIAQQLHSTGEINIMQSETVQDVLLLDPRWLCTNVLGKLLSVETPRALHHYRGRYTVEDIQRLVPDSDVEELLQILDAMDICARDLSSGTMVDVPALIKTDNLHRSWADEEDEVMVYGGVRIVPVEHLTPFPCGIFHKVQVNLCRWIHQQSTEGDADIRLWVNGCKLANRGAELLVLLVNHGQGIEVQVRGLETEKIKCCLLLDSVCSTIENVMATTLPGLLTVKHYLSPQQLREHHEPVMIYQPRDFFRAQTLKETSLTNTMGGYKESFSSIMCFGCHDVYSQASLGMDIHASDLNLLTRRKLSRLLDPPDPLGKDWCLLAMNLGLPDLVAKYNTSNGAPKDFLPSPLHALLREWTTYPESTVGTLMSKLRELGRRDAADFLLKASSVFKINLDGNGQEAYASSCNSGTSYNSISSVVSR
Experiment: Kinase profiling (radiometric filter-binding)
Assay type: biochemical
Conditions: DAPK1, 1 µM inhibitor; read-out: Residual activity, %

[
  {
    "SMILES INPUT": "N=C(N)NCCC[C@@H](NC(=O)CNC(=O)[C@@H](CCCNC(=N)N)NC(=O)[C@@H](CCCNC(=N)N)NC(=O)CCCCCCCNCc1nc2c(sc3cc(Br)cnc32)c(=O)[nH]1)C(=O)N[C@H](CCCCN)C(N)=O",
    "remaining activity at 1 µM (%)": 85
  },
  {
    "SMILES INPUT": "N=C(N)NCCC[C@@H](NC(=O)CNC(=O)[C@@H](CCCNC(=N)N)NC(=O)[C@@H](CCCNC(=N)N)NC(=O)Cn1cc(CNCc2nc3c(sc4ccc(Br)cc43)c(=O)[nH]2)nn1)C(=O)N[C@H](CCCCN)C(N)=O",
    "remaining activity at 1 µM (%)": 88
  }
]

---

// reported remaining activity at 1 µM per item
Biological target: IRAK1 (Homo sapiens, UniProt P51617)
Sequence (P51617 whole entry): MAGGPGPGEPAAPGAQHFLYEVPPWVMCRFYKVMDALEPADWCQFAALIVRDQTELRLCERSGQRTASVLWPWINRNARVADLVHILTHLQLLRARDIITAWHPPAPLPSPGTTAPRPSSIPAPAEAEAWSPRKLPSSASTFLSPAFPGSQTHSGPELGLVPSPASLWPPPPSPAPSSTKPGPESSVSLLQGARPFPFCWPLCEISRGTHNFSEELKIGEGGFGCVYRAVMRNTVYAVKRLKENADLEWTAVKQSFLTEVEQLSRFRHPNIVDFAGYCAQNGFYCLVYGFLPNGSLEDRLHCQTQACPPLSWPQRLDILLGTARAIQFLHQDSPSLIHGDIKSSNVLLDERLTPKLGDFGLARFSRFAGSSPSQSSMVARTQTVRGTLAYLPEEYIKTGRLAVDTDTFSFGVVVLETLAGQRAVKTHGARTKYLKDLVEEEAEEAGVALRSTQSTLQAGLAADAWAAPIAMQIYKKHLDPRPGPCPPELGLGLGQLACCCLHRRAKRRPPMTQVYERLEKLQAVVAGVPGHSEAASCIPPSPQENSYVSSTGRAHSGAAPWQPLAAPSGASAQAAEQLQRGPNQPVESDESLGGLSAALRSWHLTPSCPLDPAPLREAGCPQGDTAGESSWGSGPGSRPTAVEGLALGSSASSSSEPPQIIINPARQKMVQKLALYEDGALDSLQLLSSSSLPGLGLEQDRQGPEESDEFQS
Assay: Kinase profiling (radiometric filter-binding)
Format: biochemical
Details: IRAK1, 1 µM inhibitor; read-out: Residual activity, %
Square brackets hold non-standard residues; d marks the D form. Peptide text beside a SMILES is read from it. * marks the point of attachment. X3 = O=C(CCCCCNCc1nc2c(sc3cc(Br)cnc32)c(=O)[nH]1)*

[
  {
    "COMPOUND": "N=C(N)NCCC[C@@H](NC(=O)CCCCCNCc1nc2c(sc3cc(Br)cnc32)c(=O)[nH]1)C(=O)N[C@H](CCCNC(=N)N)C(=O)N[C@H](CCCNC(=N)N)C(=O)N[C@H](CCCNC(=N)N)C(=O)N[C@H](CCCNC(=N)N)C(=O)N[C@H](CCCNC(=N)N)C(=O)N[C@H](CCCCN)C(N)=O [ARC-3126, BPTP-Ahx-(D-Arg)6-D-Lys-NH2] (X3-[dR][dR][dR][dR][dR][dR][dK]-NH2)",
    "remaining activity at 1 µM [%]": 120
  },
  {
    "COMPOUND": "N=C(N)NCCC[C@@H](NC(=O)CNC(=O)[C@@H](CCCNC(=N)N)NC(=O)[C@@H](CCCNC(=N)N)NC(=O)CCCCCCCNCc1nc2c(sc3cc(Br)cnc32)c(=O)[nH]1)C(=O)N[C@H](CCCCN)C(N)=O",
    "remaining activity at 1 µM [%]": 131
  },
  {
    "COMPOUND": "N=C(N)NCCC[C@@H](NC(=O)CNC(=O)[C@@H](CCCNC(=N)N)NC(=O)[C@@H](CCCNC(=N)N)NC(=O)CCCCCCCNCc1nc2c(sc3ccc(Br)cc32)c(=O)[nH]1)C(=O)N[C@H](CCCCN)C(N)=O",
    "remaining activity at 1 µM [%]": 134
  },
  {
    "COMPOUND": "N=C(N)NCCC[C@@H](NC(=O)CCCCCNC(=O)Cn1cnc2c(I)c(I)c(I)c(I)c21)C(=O)N[C@H](CCCNC(=N)N)C(=O)N[C@H](CCCNC(=N)N)C(=O)N[C@H](CCCNC(=N)N)C(=O)N[C@H](CCCNC(=N)N)C(=O)N[C@H](CCCNC(=N)N)C(=O)N[C@H](CCCCN)C(N)=O",
    "remaining activity at 1 µM [%]": 16
  },
  {
    "COMPOUND": "N=C(N)NCCC[C@@H](NC(=O)CNC(=O)[C@@H](CCCNC(=N)N)NC(=O)[C@@H](CCCNC(=N)N)NC(=O)Cn1cc(CNCc2nc3c(sc4ccc(Br)cc43)c(=O)[nH]2)nn1)C(=O)N[C@H](CCCCN)C(N)=O",
    "remaining activity at 1 µM [%]": 113
  }
]
